Test: Ivosidenib plasma PK after multiple oral doses (dose escalation)
Type: in vivo, human
Conditions: human, plasma, oral, 300 mg, non-glioma solid tumors, 300 mg QD, cycle 2 day 1; geometric mean; read-out: AUC0-10hr
assayReadout: AUC(0-t) (ng·h/mL)

>>> result("N#Cc1ccnc(N2C(=O)CC[C@H]2C(=O)N(c2cncc(F)c2)[C@H](C(=O)NC2CC(F)(F)C2)c2ccccc2Cl)c1 [ivosidenib]")
23400

---

Assay: Ivosidenib plasma PK after a single oral dose (day −3, dose escalation), LC-MS/MS, non-compartmental
Assay type: in vivo
Settings: human, po, 1200 mg, non-glioma solid tumors, single oral 1200 mg, day −3, geometric mean (geometric CV%), read-out: AUC0-72h
assayReadout: AUC(0-t) (µg·h/mL)

>>> result("N#Cc1ccnc(N2C(=O)CC[C@H]2C(=O)N(c2cncc(F)c2)[C@H](C(=O)NC2CC(F)(F)C2)c2ccccc2Cl)c1")
212

---

Assay: Ivosidenib plasma PK after single and multiple 500 mg QD doses (dose expansion)
Type: in vivo, human
Settings: human, plasma, oral, 500 mg, expansion other solid tumors, cycle 2 day 1, geometric mean (geometric CV%)
assayReadout: Cmax (ng/mL)

>>> result("N#Cc1ccnc(N2C(=O)CC[C@H]2C(=O)N(c2cncc(F)c2)[C@H](C(=O)NC2CC(F)(F)C2)c2ccccc2Cl)c1")
4130

---

Assay: Ivosidenib plasma PK after multiple oral doses (dose escalation)
Format: in vivo, human
Conditions: human, plasma, oral, 500 mg, glioma, 500 mg QD, cycle 2 day 1; geometric mean; read-out: AUC0-tau
assayReadout: AUC (µg·h/mL)

>>> result("N#Cc1ccnc(N2C(=O)CC[C@H]2C(=O)N(c2cncc(F)c2)[C@H](C(=O)NC2CC(F)(F)C2)c2ccccc2Cl)c1")
44.4

---

Experiment: Ivosidenib plasma PK after a single oral dose (day −3, dose escalation), LC-MS/MS, non-compartmental
Type: in vivo
Conditions: human, po, 500 mg, glioma, single oral 500 mg, day −3, geometric mean (geometric CV%), read-out: AUC0-72h
assayReadout: AUC(0-t) (ng·h/mL)

>>> result("N#Cc1ccnc(N2C(=O)CC[C@H]2C(=O)N(c2cncc(F)c2)[C@H](C(=O)NC2CC(F)(F)C2)c2ccccc2Cl)c1")
81900

---

Test: Ivosidenib plasma PK after a single oral dose (day −3, dose escalation), LC-MS/MS, non-compartmental
Assay type: in vivo
Settings: human, po, 800 mg, non-glioma solid tumors, single oral 800 mg, day −3, geometric mean (geometric CV%), read-out: AUC0-72h
assayReadout: AUC(0-t) (µg·h/mL)

>>> result("N#Cc1ccnc(N2C(=O)CC[C@H]2C(=O)N(c2cncc(F)c2)[C@H](C(=O)NC2CC(F)(F)C2)c2ccccc2Cl)c1")
179

---

Experiment: Ivosidenib plasma PK after a single oral dose (day −3, dose escalation), LC-MS/MS, non-compartmental
Type: in vivo
Details: human, po, 900 mg, glioma, single oral 900 mg, day −3, median (minimum; maximum), read-out: Tmax
assayReadout: Tmax (h)

>>> result("N#Cc1ccnc(N2C(=O)CC[C@H]2C(=O)N(c2cncc(F)c2)[C@H](C(=O)NC2CC(F)(F)C2)c2ccccc2Cl)c1")
2.55

---

Assay: Ivosidenib plasma PK after single and multiple 500 mg QD doses (dose expansion)
Assay type: in vivo, human
Details: human, plasma, oral, 500 mg, expansion cholangiocarcinoma, cycle 1 day 1, median (minimum; maximum)
assayReadout: Tmax (h)

>>> result("N#Cc1ccnc(N2C(=O)CC[C@H]2C(=O)N(c2cncc(F)c2)[C@H](C(=O)NC2CC(F)(F)C2)c2ccccc2Cl)c1")
3.08

---

Assay: Ivosidenib plasma PK after a single oral dose (day −3, dose escalation), LC-MS/MS, non-compartmental
Type: in vivo
Conditions: human, po, 400 mg, non-glioma solid tumors, single oral 400 mg, day −3, geometric mean (geometric CV%), read-out: t1/2 (converted)
assayReadout: half-life

>>> result("N#Cc1ccnc(N2C(=O)CC[C@H]2C(=O)N(c2cncc(F)c2)[C@H](C(=O)NC2CC(F)(F)C2)c2ccccc2Cl)c1")
"77.3 h"

---

Assay: Ivosidenib plasma PK after multiple oral doses (dose escalation)
Assay type: in vivo, human
Settings: human, plasma, oral, 900 mg, glioma, 900 mg QD, cycle 2 day 1; geometric mean; read-out: AUC0-10hr
assayReadout: AUC(0-t) (ng·h/mL)

>>> result("N#Cc1ccnc(N2C(=O)CC[C@H]2C(=O)N(c2cncc(F)c2)[C@H](C(=O)NC2CC(F)(F)C2)c2ccccc2Cl)c1")
31100

---

Test: Ivosidenib plasma PK after a single oral dose (day −3, dose escalation), LC-MS/MS, non-compartmental
Format: in vivo
Conditions: human, po, 100 mg, non-glioma solid tumors, single oral 100 mg, day −3, geometric mean (geometric CV%)
Experimental: In the dose escalation portion, patients with 1) glioma and 2) non-glioma solid tumors were enrolled into sequential cohorts using a standard 3 + 3 design. […] Plasma ivosidenib was measured using two validated liquid chromatography-tandem mass spectrometry (LC-MS/MS) methods. The lower limit of quantification (LLOQ) was 1.00 ng/mL (low-range assay) or 50.0 ng/mL (high-range assay). […] Plasma 2-HG concentrations were measured using a qualified LC-MS/MS method with an LLOQ of 30.0 ng/mL. […]
assayReadout: Cmax (µg/mL)

>>> result("N#Cc1ccnc(N2C(=O)CC[C@H]2C(=O)N(c2cncc(F)c2)[C@H](C(=O)NC2CC(F)(F)C2)c2ccccc2Cl)c1")
1.4

---

Assay: Ivosidenib plasma PK after multiple oral doses (dose escalation)
Type: in vivo, human
Settings: human, plasma, oral, 1200 mg, non-glioma solid tumors, 1,200 mg QD, cycle 2 day 1; median; read-out: Tmax
assayReadout: Tmax (h)

>>> result("N#Cc1ccnc(N2C(=O)CC[C@H]2C(=O)N(c2cncc(F)c2)[C@H](C(=O)NC2CC(F)(F)C2)c2ccccc2Cl)c1 [ivosidenib]")
2.92

---

Assay: Ivosidenib plasma PK after multiple oral doses (dose escalation)
Assay type: in vivo, human
Conditions: human, plasma, oral, 600 mg, glioma, 600 mg QD, cycle 2 day 1; geometric mean; read-out: AUC0-tau
assayReadout: AUC (ng·h/mL)

>>> result("N#Cc1ccnc(N2C(=O)CC[C@H]2C(=O)N(c2cncc(F)c2)[C@H](C(=O)NC2CC(F)(F)C2)c2ccccc2Cl)c1 [ivosidenib]")
59800

---

Assay: Ivosidenib plasma PK after single and multiple 500 mg QD doses (dose expansion)
Format: in vivo, human
Settings: human, plasma, oral, 500 mg, expansion cholangiocarcinoma, cycle 2 day 1, geometric mean (geometric CV%), read-out: AUC0-8hr
assayReadout: AUC(0-t) (ng·h/mL)

>>> result("N#Cc1ccnc(N2C(=O)CC[C@H]2C(=O)N(c2cncc(F)c2)[C@H](C(=O)NC2CC(F)(F)C2)c2ccccc2Cl)c1")
29000

---

Test: Ivosidenib plasma PK after single and multiple 500 mg QD doses (dose expansion)
Type: in vivo, human
Details: human, plasma, oral, 500 mg, expansion enhancing glioma, cycle 2 day 1, median (minimum; maximum)
assayReadout: Tmax (h)

>>> result("N#Cc1ccnc(N2C(=O)CC[C@H]2C(=O)N(c2cncc(F)c2)[C@H](C(=O)NC2CC(F)(F)C2)c2ccccc2Cl)c1 [ivosidenib]")
2.03

---

Assay: Ivosidenib plasma PK after single and multiple 500 mg QD doses (dose expansion)
Format: in vivo, human
Conditions: human, plasma, oral, 500 mg, expansion cholangiocarcinoma, cycle 2 day 1, geometric mean (geometric CV%), read-out: AUC0-24hr
assayReadout: AUC(0-t) (ng·h/mL)

>>> result("N#Cc1ccnc(N2C(=O)CC[C@H]2C(=O)N(c2cncc(F)c2)[C@H](C(=O)NC2CC(F)(F)C2)c2ccccc2Cl)c1")
75600

---

Assay: Ivosidenib plasma PK after a single oral dose (day −3, dose escalation), LC-MS/MS, non-compartmental
Assay type: in vivo
Settings: human, po, 400 mg, non-glioma solid tumors, single oral 400 mg, day −3, geometric mean (geometric CV%), read-out: AUC0-72h
assayReadout: AUC(0-t) (µg·h/mL)

>>> result("N#Cc1ccnc(N2C(=O)CC[C@H]2C(=O)N(c2cncc(F)c2)[C@H](C(=O)NC2CC(F)(F)C2)c2ccccc2Cl)c1")
141

---

Test: Ivosidenib plasma PK after single and multiple 500 mg QD doses (dose expansion)
Assay type: in vivo, human
Conditions: human, plasma, oral, 500 mg, expansion other solid tumors, cycle 2 day 1, median (minimum; maximum)
Method: Additional predose samples were taken on cycle 1, day 8; cycle 1, day 15; cycle 3, day 1; and end of treatment. Plasma ivosidenib was measured using two validated liquid chromatography-tandem mass spectrometry (LC-MS/MS) methods. The lower limit of quantification (LLOQ) was 1.00 ng/mL (low-range assay) or 50.0 ng/mL (high-range assay). […] Plasma 2-HG concentrations were measured using a qualified LC-MS/MS method with an LLOQ of 30.0 ng/mL. […]
assayReadout: Tmax (h)

>>> result("N#Cc1ccnc(N2C(=O)CC[C@H]2C(=O)N(c2cncc(F)c2)[C@H](C(=O)NC2CC(F)(F)C2)c2ccccc2Cl)c1 [ivosidenib]")
1.98
